# target or test system: Leukotriene A-4 hydrolase (Homo sapiens, UniProt P09960)
# Sequence (P09960 whole entry): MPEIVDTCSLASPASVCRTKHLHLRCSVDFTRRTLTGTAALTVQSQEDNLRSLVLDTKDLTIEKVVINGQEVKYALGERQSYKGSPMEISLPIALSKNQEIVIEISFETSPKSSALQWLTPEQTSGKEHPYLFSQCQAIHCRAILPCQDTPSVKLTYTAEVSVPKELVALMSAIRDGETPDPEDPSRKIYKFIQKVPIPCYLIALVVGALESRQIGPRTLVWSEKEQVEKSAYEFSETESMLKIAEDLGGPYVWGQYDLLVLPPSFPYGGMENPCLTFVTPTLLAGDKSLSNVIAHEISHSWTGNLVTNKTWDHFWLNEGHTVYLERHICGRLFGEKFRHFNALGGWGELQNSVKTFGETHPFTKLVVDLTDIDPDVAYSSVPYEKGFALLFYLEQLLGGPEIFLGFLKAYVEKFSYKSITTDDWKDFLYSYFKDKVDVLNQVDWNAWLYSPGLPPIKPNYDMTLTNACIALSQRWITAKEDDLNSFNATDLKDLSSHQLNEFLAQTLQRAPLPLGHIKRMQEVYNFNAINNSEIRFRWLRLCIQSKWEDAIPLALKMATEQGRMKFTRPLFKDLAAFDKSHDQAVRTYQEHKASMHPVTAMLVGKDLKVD
# experiment summary: Inhibition of human leukotriene A4 hydrolase (LTA-4).
test readout: IC50 (nM)
Respond numerically; units are nM and should not be typed.

Input: # input molecule: CCOC(=O)CNCCOc1ccc(Cc2ccccc2)cc1 ; wanted: its IC50
Output: 2500

Input: // query: COC(=O)CCN(C)CCCOc1ccc(Cc2ccsc2)cc1
Output: 870

Input: // query: CN(CCCCOc1ccc(Cc2ccccc2)cc1)CC(=O)O
Output: 110

Input: // query: CCOC(=O)CCCNCCOc1ccc(Cc2ccccc2)cc1
Output: 3700

Input: // query: CCOC(=O)CCCCNCCOc1ccc(Cc2ccccc2)cc1
Output: 10700

Input: // query: CN(CCCOc1ccc(Cc2ccccc2)cc1)CCS(N)(=O)=O
Output: 4

Input: // query: O=C(O)CNCCCCOc1ccc(Cc2ccccc2)cc1
Output: 1.3

Input: // query: CN(CCCOc1ccc(Cc2ccccc2)cc1)CCS(=O)(=O)O
Output: 220

Input: // query: CCOC(=O)CCNCCCOc1ccc(Cc2ccccc2)cc1
Output: 84

Input: // query: CCOC(=O)CN(C)CCCCOc1ccc(Cc2ccccc2)cc1
Output: 6600
